# target_or_system: furin, P09958;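 note: purified furin at 1:10 enzyme:substrate in 50 mM HEPES pH 7.5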
# Sequence (P09958 whole entry): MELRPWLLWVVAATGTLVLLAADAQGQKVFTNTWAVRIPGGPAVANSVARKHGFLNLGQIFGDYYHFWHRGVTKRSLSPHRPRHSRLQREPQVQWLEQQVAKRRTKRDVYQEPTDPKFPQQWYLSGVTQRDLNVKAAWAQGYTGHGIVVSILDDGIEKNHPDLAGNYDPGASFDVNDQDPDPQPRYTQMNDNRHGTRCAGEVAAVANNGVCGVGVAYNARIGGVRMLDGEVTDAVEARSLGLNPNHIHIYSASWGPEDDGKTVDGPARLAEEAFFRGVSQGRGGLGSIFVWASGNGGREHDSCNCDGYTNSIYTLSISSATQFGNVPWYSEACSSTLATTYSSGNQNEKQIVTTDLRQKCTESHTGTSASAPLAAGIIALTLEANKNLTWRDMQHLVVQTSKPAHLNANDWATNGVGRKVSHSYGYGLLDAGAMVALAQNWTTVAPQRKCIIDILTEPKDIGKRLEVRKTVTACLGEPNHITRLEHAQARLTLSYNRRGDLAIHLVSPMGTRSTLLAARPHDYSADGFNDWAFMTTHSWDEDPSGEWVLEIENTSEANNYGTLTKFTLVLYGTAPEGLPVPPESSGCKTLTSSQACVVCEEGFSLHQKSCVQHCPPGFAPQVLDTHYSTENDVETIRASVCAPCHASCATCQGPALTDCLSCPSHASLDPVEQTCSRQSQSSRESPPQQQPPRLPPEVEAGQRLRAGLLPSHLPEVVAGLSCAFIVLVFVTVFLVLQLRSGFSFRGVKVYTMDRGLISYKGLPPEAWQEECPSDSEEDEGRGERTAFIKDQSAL
# experiment_summary: furin cleavage Z-score vs untreated control; higher = more cleavage, active = 3.5 or more, inactive = 1 or less, 8 variable residues between constant flanks
# condition_summary: 15 min
The other results are listed elsewhere or left out. The hit rate among all sequences tested is not known here.
Property: furin cleavage Z-score; scope: individual sequences
Lab note: jot down the number only; don't add units.

Check out these entries, answers already filled in.
CAEVVTSVWVAGNASASA [HC2210]: -0.635
CAAVGRAGRDAGNASASA [FS-11]: 1.42
CAICESAGVQAGNASASA [HC1532]: -0.227
CAEVVTSTWNAGNASASA [HC2261]: 1.01
CASPARLARRAGNASASA [FS-869]: 3.9

Form field furin cleavage Z-score, entry CACVPRMRRPAGNASASA [FS-753] : -2.19

Lab book: furin cleavage Z-score of CAATCINGVCAGNASASA [HC696] noted as -0.421
